Test: Displacement of [3H]flunitrazepam from Benzodiazepine receptor in Sprague-Dawley rat cerebral cortex membrane preincubated for 10 mins followed by [3H]flunitrazepam addition and measured after 60 mins by liquid scintillation spectroscopy analysis
Type: cell membranes
Assay Metric: IC50 (nM)
Give the number; nM is assumed, so skip it.

Exam item: I'd like to know its IC50. The molecule in question is CCc1cc2c(s1)-n1c(C)nnc1CN=C2c1ccccc1Cl
Marked response: 4.5

* * *

Experiment: Effect on motor coordination in mouse assessed as number of falls from rotarod at 30 mg/kg, po measured for 30 mins by rotarod test (reference value: 2.2 +/- 0.2)
Type: ADME, organism-based
Settings: in vivo, 0.5 h
Mark each entry 1 if its Activity sits below 2, and -1 for all others.

Exam item: Take the compound CCOC(=O)c1ncn2c1CN=C(c1ccc(F)cc1)c1ccsc1-2 and say whether its Activity is less than 2.
Marked response: -1

Exam item: Take the compound CC(C)(C)OC(=O)c1ncn2c1CN=C(c1cccc(F)c1)c1ccsc1-2 and say whether its Activity is less than 2.
Marked response: 1

Exam item: Take the compound CCOC(=O)c1ncn2c1CN=C(c1ccccc1)c1ccsc1-2 and say whether its Activity is less than 2.
Marked response: 1

Exam item: Take the compound CCOC(=O)c1ncn2c1CN=C(c1cccc(F)c1)c1ccsc1-2 and say whether its Activity is less than 2.
Marked response: -1

Exam item: Take the compound CC(C)(C)OC(=O)c1ncn2c1CN=C(c1ccc(F)cc1)c1ccsc1-2 and say whether its Activity is less than 2.
Marked response: -1

Exam item: Take the compound CC(C)(C)OC(=O)c1ncn2c1CN=C(c1ccccc1)c1ccsc1-2 and say whether its Activity is less than 2.
Marked response: -1

* * *

Assay: Displacement of [3H]diazepam from Benzodiazepine receptor in rat cerebral cortex membrane
Format: cell membranes
Assay Metric: pIC50
Formally, pIC50 is defined as -log10 of the concentration c, with c in mol/L.

Exam item: I'd like to know its pIC50. The molecule in question is CCOC(=O)c1ncn2c1CN(C)C(=O)c1cc(F)ccc1-2
Marked response: 8.64

* * *

Hi there, I'd appreciate the recorded Activity for every entry that follows.
Experiment: Effect on explorative activity in mouse assessed as exploration of holes at 30 mg/kg, po measured after 30 mins by hole-board test
Assay type: ADME, organism-based
Conditions: in vivo, 0.5 h
Reply: number alone, nothing else.

Exam item: I'd like to know its Activity. The molecule in question is CC(C)(C)OC(=O)c1ncn2c1CN=C(c1cccc(F)c1)c1ccsc1-2
Marked response: 17.5

Exam item: I'd like to know its Activity. The molecule in question is CC(C)(C)OC(=O)c1ncn2c1CN=C(c1ccccc1)c1ccsc1-2
Marked response: 15.9

Exam item: I'd like to know its Activity. The molecule in question is CCOC(=O)c1ncn2c1CN=C(c1cccc(F)c1)c1ccsc1-2
Marked response: 15.3

Exam item: I'd like to know its Activity. The molecule in question is CCOC(=O)c1ncn2c1CN=C(c1ccc(F)cc1)c1ccsc1-2
Marked response: 15.8

Exam item: I'd like to know its Activity. The molecule in question is CC(C)(C)OC(=O)c1ncn2c1CN=C(c1ccc(F)cc1)c1ccsc1-2
Marked response: 17.5

Exam item: I'd like to know its Activity. The molecule in question is CCOC(=O)c1ncn2c1CN=C(c1ccccc1)c1ccsc1-2
Marked response: 19.1

* * *

Assay: Hypnotic activity in mouse assessed as phenobarbital induced sleep endurance time at 30 mg/kg, po administered 30 mins prior to phenobarbital challenge and measured for 30 mins (reference value: 27.4 +/- 2.3 min)
Type: ADME, organism-based
Conditions: in vivo, 1 h, time 60 min
Assay Metric: Time (min)
Give the number; min is assumed, so skip it.

Exam item: I'd like to know its Time. The molecule in question is CCOC(=O)c1ncn2c1CN=C(c1ccc(F)cc1)c1ccsc1-2
Marked response: 29.2

Exam item: I'd like to know its Time. The molecule in question is CCOC(=O)c1ncn2c1CN=C(c1ccccc1)c1ccsc1-2
Marked response: 23.8

Exam item: I'd like to know its Time. The molecule in question is CC(C)(C)OC(=O)c1ncn2c1CN=C(c1ccccc1)c1ccsc1-2
Marked response: 28.8

Exam item: I'd like to know its Time. The molecule in question is CCOC(=O)c1ncn2c1CN=C(c1cccc(F)c1)c1ccsc1-2
Marked response: 24.9

Exam item: I'd like to know its Time. The molecule in question is CC(C)(C)OC(=O)c1ncn2c1CN=C(c1ccc(F)cc1)c1ccsc1-2
Marked response: 27.2

Exam item: I'd like to know its Time. The molecule in question is CC(C)(C)OC(=O)c1ncn2c1CN=C(c1cccc(F)c1)c1ccsc1-2
Marked response: 25.9
